Target: human EGF-R (Homo sapiens, UniProt P00533)
Construct: packaging line GP+E86)
Sequence (P00533 25-1210): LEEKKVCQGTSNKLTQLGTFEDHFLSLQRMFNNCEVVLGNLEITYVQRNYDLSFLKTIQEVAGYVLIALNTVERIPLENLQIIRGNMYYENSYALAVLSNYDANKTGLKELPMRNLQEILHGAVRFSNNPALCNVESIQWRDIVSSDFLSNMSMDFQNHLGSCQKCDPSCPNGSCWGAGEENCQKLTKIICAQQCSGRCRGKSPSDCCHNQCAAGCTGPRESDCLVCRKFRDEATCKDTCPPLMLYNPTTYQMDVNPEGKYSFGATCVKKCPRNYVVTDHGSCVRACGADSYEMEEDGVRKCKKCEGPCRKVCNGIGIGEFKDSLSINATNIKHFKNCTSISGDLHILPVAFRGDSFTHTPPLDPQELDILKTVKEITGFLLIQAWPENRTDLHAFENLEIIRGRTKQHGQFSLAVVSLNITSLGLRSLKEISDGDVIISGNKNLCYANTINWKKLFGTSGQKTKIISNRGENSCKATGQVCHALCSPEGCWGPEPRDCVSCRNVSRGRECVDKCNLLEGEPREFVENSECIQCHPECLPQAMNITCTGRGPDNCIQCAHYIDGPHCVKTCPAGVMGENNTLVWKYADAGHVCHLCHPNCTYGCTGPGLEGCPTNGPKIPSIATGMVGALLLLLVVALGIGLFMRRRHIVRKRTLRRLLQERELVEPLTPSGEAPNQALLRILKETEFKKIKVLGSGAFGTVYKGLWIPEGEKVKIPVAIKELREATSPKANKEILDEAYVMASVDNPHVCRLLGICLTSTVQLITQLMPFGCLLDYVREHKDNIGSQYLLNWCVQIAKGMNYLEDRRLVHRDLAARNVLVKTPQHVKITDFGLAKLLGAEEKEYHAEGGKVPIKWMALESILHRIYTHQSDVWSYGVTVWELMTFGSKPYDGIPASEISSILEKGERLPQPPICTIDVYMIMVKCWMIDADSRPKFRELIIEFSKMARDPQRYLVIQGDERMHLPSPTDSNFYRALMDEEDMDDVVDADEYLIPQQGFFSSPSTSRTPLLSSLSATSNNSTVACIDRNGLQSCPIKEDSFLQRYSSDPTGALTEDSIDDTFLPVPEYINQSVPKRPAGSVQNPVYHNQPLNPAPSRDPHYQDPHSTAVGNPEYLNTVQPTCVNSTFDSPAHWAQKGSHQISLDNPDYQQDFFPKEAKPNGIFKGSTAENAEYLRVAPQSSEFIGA
Experiment: Inhibition of EGF-dependent proliferation of F/L-HERc cells
Conditions: F/L-HERc cells (murine IL-3-dependent line expressing human EGF-R), stimulated with EGF 20 ng/ml, 48 hours, Cell Titer 96 AQueous assay
Measure name: IC50 (nM)

(a) O=C(C=CCN1CCN(C2COC(=O)C2)CC1)Nc1cc2c(Nc3ccc(F)c(Cl)c3)ncnc2cc1OCC1CC1 (stereo not shown)
(b) O=C(C=CCN1CCN(C2CCOC2=O)CC1)Nc1cc2c(Nc3ccc(F)c(Cl)c3)ncnc2cc1OCC1CC1 (stereo not shown)
(c) O=C(C=CCN1CCN2CC(=O)OCC2C1)Nc1cc2c(Nc3ccc(F)c(Cl)c3)ncnc2cc1OCC1CC1 (stereo not shown)
(d) O=C(C=CCN1CCN(CCSC2CCOC2=O)CC1)Nc1cc2c(Nc3ccc(F)c(Cl)c3)ncnc2cc1OCC1CC1 (stereo not shown)
// rank above by IC50: first = highest number // rank by listing labels in the order requested
c, d, a, b
(c: 10 nM, d: 3 nM, a: 0.6 nM, b: 0.05 nM)
